STUDY_SYSTEM: CCK receptor (brain, cortex) (Cavia porcellus)
Construct: the cortex was removed and homogenized in 25 mL ice-cold 0.32M sucrose; from tissue; host or cells: guinea pig brain cortex, P2 membranes
PROTOCOL: CCK Receptor Binding (Brain)
Set-up: species or system guinea pig (male Hartley)
OBSERVABLE: IC50

>>> measured("O=C(Nc1ccc(Cl)cc1)NC1N=C(c2ccccc2)c2ccccc2N(CC(O)CO)C1=O (stereo not shown) [Example 5]")
"0.118 µM"

====

STUDY_SYSTEM: CCK receptor (brain, cortex) (Cavia porcellus, UniProt H0VZC5)
Construct: the cortex was removed and homogenized in 25 mL ice-cold 0.32M sucrose; from tissue; host or cells: guinea pig brain cortex, P2 membranes
Sequence (H0VZC5 1-426): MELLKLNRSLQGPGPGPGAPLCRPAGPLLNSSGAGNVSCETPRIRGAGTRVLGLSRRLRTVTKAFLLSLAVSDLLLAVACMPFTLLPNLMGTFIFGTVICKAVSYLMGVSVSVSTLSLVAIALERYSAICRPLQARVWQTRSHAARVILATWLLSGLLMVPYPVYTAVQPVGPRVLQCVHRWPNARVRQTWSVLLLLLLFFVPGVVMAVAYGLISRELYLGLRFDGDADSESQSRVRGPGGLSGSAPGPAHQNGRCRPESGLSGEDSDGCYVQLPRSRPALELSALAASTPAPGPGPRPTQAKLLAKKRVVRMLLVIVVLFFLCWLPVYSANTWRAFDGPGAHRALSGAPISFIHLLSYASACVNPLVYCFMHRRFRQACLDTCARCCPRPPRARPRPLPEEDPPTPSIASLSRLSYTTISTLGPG
PROTOCOL: CCK Receptor Binding (Brain)
Set-up: species or system guinea pig (male Hartley)
CONDITION_SUMMARY: 125I-CCK-8 50 pM, guinea pig cortex, 25° C., 2 hours; read-out: CCK RECEPTOR BINDING RESULTS IC50, 125I-CCK Brain
OBSERVABLE: IC50 (nM)

>>> measured("O=C(Nc1ccc(Cl)cc1)NC1N=C(c2ccccc2)c2ccccc2N(CC(O)CN2CCCC2)C1=O (stereo not shown) [Example 2]")
300
>>> measured("CN(C)CC(O)CN1C(=O)C(NC(=O)Nc2ccc(Cl)cc2)N=C(c2ccccc2)c2ccccc21 (stereo not shown) [Example 3]")
430
>>> measured("O=C(Nc1ccc(Cl)cc1)NC1N=C(c2ccccc2)c2ccccc2N(CC(Cl)CO)C1=O (stereo not shown) [Example 4]")
62
>>> measured("O=C(Nc1ccc(Cl)cc1)NC1N=C(c2ccccc2)c2ccccc2N(Cc2nnn[nH]2)C1=O (stereo not shown) [Example 1]")
494
